Every entry's value here was drawn from patent US20210101874A1.

Hi there, I'd appreciate the recorded melting point for every entry that follows.

Worked cases, melting point given:
CN(C)S(=O)(=O)N(Cc1ccc(-c2noc(C(F)(F)F)n2)cc1)C1CC1    82 to 84 °C
CCNS(=O)(=O)N(C)Cc1ccc(-c2noc(C(F)(F)F)n2)cc1    63 to 66 °C

Hi team, please reply with melting point for each item in this list.
1. CCN(Cc1ccc(-c2noc(C(F)(F)F)n2)c(F)c1F)S(C)(=O)=O
2. O=S(=O)(Nc1ccc(-c2noc(C(F)(F)F)n2)cc1)C1CC1
3. O=S(=O)(NCc1ccc(-c2noc(C(F)(F)F)n2)cc1)c1ccccc1
4. CN(C)S(=O)(=O)N(C)Cc1ccc(-c2noc(C(F)(F)F)n2)cc1

**A:**
1: 81 to 93 °C; 2: 130 to 140 °C; 3: 116 to 124 °C; 4: 77 to 79 °C

Hi team, please reply with melting point for each item in this list.
1. O=S(=O)(CC1CC1)NCc1ccc(-c2noc(C(F)(F)F)n2)cc1
2. O=S(=O)(CC1CCOC1)NCc1ccc(-c2noc(C(F)(F)F)n2)cc1 (stereo not shown)
3. CCS(=O)(=O)N(C)Cc1ccc(-c2noc(C(F)(F)F)n2)cc1
4. O=S(=O)(NCc1ccc(-c2noc(C(F)(F)F)n2)cc1)c1ccc(F)cc1F
5. O=S(=O)(NCc1ccc(-c2noc(C(F)(F)F)n2)cc1)C1CC1
6. O=S(=O)(Cc1ccc(Cl)cc1F)NCc1ccc(-c2noc(C(F)(F)F)n2)cc1
7. CS(=O)(=O)N(Cc1ccc(-c2noc(C(F)(F)F)n2)cc1)C1CC1

**A:**
["140 to 144 °C", "117 to 122 °C", "85 to 88 °C", "112 to 115 °C", "130 to 134 °C", "140 to 144 °C", "84 to 86 °C"]
